biological target: recombinant human PAI-1 (Homo sapiens, UniProt P05121); experiment: biochemical; conditions: read-out: Inhibition Rate of PAI-1 Activity (%)
Sequence (P05121 24-402): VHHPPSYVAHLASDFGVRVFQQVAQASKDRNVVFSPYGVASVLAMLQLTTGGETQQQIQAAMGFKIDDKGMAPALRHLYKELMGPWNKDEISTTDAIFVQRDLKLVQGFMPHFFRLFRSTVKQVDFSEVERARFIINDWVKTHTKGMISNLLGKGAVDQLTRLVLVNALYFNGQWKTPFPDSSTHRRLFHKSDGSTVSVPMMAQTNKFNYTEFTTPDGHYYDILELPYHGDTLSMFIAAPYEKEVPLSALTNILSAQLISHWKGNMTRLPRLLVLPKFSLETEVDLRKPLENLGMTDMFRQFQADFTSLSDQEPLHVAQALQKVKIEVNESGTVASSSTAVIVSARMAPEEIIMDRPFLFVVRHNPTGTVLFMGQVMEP
Is inhibition at 25 µM at least 90%? Then YES. If not, NO.

Q: # bool: inhibition at 25 µM of CC(C)(C)c1ccc(CN(C(=O)C(=O)O)c2ccccc2-c2ccc(OC(F)(F)F)cc2)cc1 >= 90%
Result: YES

Q: # check: inhibition at 25 µM of CCCOc1ccc(N(CCCc2ccccc2)C(=O)C(=O)O)cc1-c1ccc(OC(F)(F)F)cc1 is greater than or equal to 90%
Result: YES

Q: Hi team, for CC(C)(C)c1ccc(Oc2cc(-c3ccc(OC(F)(F)F)cc3)ccc2CCC(=O)O)cc1 , is the recorded inhibition at 25 µM at or above 90%?
Result: YES

Q: Dear colleague, could you confirm whether CC(C)(C)c1ccc(COc2c(CCC(=O)O)cccc2-c2ccc(OC(F)(F)F)cc2)cc1 has inhibition at 25 µM at or above 90%?
Result: YES

Q: Item Cc1cc(-c2ccc(OC(F)(F)F)cc2)cc(C)c1N(Cc1ccc(C(C)(C)C)cc1)C(=O)C(=O)O with inhibition at 25 µM of 90% or above?
Result: YES

Q: Does the reported inhibition at 25 µM for O=C(O)C(=O)N(Cc1ccc(OC(F)(F)F)cc1)c1ccc(-c2ccccc2)cc1 fall at or above the 90% mark?
Result: NO

Q: Hi team, for CC(C)(C)c1ccc(-c2ccc(N(Cc3ccccc3)C(=O)C(=O)O)cc2)cc1 , is the recorded inhibition at 25 µM at or above 90%?
Result: NO

* * *

biological target: recombinant human PAI-1 (Homo sapiens, UniProt P05121); test: biochemical; conditions: read-out: Inhibition Rate of PAI-1 Activity (%), Compound Concentration 5µM;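 also: PAI-1 preincubated with compound, then two-chain tPA added, residual tPA activity read with fluorogenic Pyr-Gly-Arg-MCA substrate after 30 min at room temperature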
Assignment: determine reported inhibition at 5 µM for the given molecules.
# value in %; strip the unit string

Q: Give the measured inhibition at 5 µM for CC(C)(Oc1cc(-c2ccc(OC(F)(F)F)cc2)ccc1OCc1ccc(C(C)(C)C)cc1)C(=O)O
Result: 50

Q: Answer with reported inhibition at 5 µM of CCCCC(c1ccc(C(C)(C)C)cc1)N(C(=O)C(=O)O)c1ccc(-c2ccc(OC(F)(F)F)cc2)cc1 (centres unmarked)
Result: 80

Q: Provide only the value of recorded inhibition at 5 µM for O=C(O)CCc1c(Oc2ccc(OC(F)(F)F)cc2)cccc1Oc1ccc(OC(F)(F)F)cc1
Result: 57

Q: Look up and report measured inhibition at 5 µM for this entry: Cc1ccc(N(Cc2ccc(C(C)(C)C)cc2)C(=O)C(=O)O)cc1-c1ccc(OC(F)(F)F)cc1
Result: 65

Q: Please give the documented inhibition at 5 µM of CC(C)c1ccc(Oc2ccc(CCC(=O)O)c(Oc3ccc(C(C)C)cc3)c2)cc1
Result: 30

Q: Identify measured inhibition at 5 µM corresponding to COc1cc(OC)c(N(Cc2ccc(C(C)(C)C)cc2)C(=O)C(=O)O)cc1-c1ccc(OC(F)(F)F)cc1
Result: 65

Q: Quickly give me recorded inhibition at 5 µM for CC(C)(Oc1cccc(-c2ccc(OC(F)(F)F)cc2)c1OCc1ccc(C(C)(C)C)cc1)C(=O)O
Result: 56

Q: Answer with the recorded inhibition at 5 µM for the molecule listed here: CCC(CC)Oc1ccc(N(Cc2ccc(C(C)(C)C)cc2)C(=O)C(=O)O)cc1-c1ccc(OC(F)(F)F)cc1
Result: 90

Q: Answer with reported inhibition at 5 µM of CCCOc1ccc(-c2ccc(OC(F)(F)F)cc2)cc1N(Cc1ccc(C(C)(C)C)cc1)C(=O)C(=O)O
Result: 73

Q: Give the value of inhibition at 5 µM reported for the following: CC(C)(Oc1c(Oc2ccc(C(C)(C)C)cc2)cccc1-c1ccc(OC(F)(F)F)cc1)C(=O)O
Result: 62

Q: Please list inhibition at 5 µM recorded for the molecule CC(C)(C)c1ccc(CN(C(=O)C(=O)O)c2cc(-c3ccc(OC(F)(F)F)cc3)cc(C(F)(F)F)c2)cc1
Result: 25

Q: Specify inhibition at 5 µM for CCCCOc1ccc(-c2ccc(OC(F)(F)F)cc2)cc1N(CCCCc1ccccc1)C(=O)C(=O)O and stop.
Result: 81

Q: Entry CC(C)(C)c1ccc(COc2cc(Oc3ccc(OC(F)(F)F)cc3)ccc2CCC(=O)O)cc1 needs its inhibition at 5 µM filled in; supply it.
Result: 24

Q: State its inhibition at 5 µM for this molecule: CC(C)(C)c1ccc(CN(C(=O)C(=O)O)c2cc(C(F)(F)F)ccc2-c2ccc(OC(F)(F)F)cc2)cc1
Result: 63

Q: Quick one: give measured inhibition at 5 µM for CCC(CC)Oc1ccc(N(CCCc2ccccc2)C(=O)C(=O)O)cc1-c1ccc(OC(F)(F)F)cc1
Result: 75

Q: Report inhibition at 5 µM, nothing else, for this molecule: CCN(CC)c1ccc(N(Cc2ccc(C(C)(C)C)cc2)C(=O)C(=O)O)c(-c2ccc(OC(F)(F)F)cc2)c1
Result: 89

Q: Please look at this molecule and report its inhibition at 5 µM: CC(C)(C)c1ccc(COc2ccc(-c3ccc(OC(F)(F)F)cc3)cc2OCC(=O)O)cc1
Result: 38

Q: Name the recorded inhibition at 5 µM of the molecule listed here: CCCOc1ccc(N(Cc2ccc(C(C)(C)C)cc2)C(=O)C(=O)O)cc1-c1ccc(OC(F)(F)F)cc1
Result: 81

Q: Quick one: give measured inhibition at 5 µM for CC(C)(C)c1ccc(CN(C(=O)C(=O)O)c2cccc(-c3ccc(OC(F)(F)F)cc3)c2)cc1
Result: 82

Q: For CCN(CC)c1ccc(N(CCCc2ccccc2)C(=O)C(=O)O)c(-c2ccc(OC(F)(F)F)cc2)c1 , write its inhibition at 5 µM.
Result: 76

Q: Give the value of inhibition at 5 µM reported for the following: CC(C)(C)c1ccc(CN(C(=O)C(=O)O)c2ccc(-c3ccc(OC(F)(F)F)cc3)cc2Cl)cc1
Result: 38

Q: Specify inhibition at 5 µM for CC(C)(C)c1ccc(COc2cccc(Oc3ccc(OC(F)(F)F)cc3)c2CCC(=O)O)cc1 and stop.
Result: 47

Q: // fetch inhibition at 5 µM given entry CCCOc1ccc(N(Cc2ccc(C(C)(C)C)cc2)C(=O)C(=O)O)c(-c2ccc(OC(F)(F)F)cc2)c1
Result: 79

Q: Supply recorded inhibition at 5 µM for CC(C)(C)c1ccc(CN(C(=O)C(=O)O)c2ccc(-c3ccc(OC(F)(F)F)cc3)cc2)cc1 here.
Result: 75

Q: Please report the measured inhibition at 5 µM for CC(C)(C)c1ccc(Oc2cccc(-c3ccc(OC(F)(F)F)cc3)c2OCC(=O)O)cc1
Result: 58

Q: Let me know recorded inhibition at 5 µM for CC(C)(C)c1ccc(CN(C(=O)C(=O)O)c2cccc(Oc3ccc(OC(F)(F)F)cc3)c2)cc1 , thanks.
Result: 58

Q: Give reported inhibition at 5 µM value for CCCCc1ccc(CN(C(=O)C(=O)O)c2ccc(-c3ccc(C(C)(C)C)cc3)cc2)cc1
Result: 78

Q: Report inhibition at 5 µM, nothing else, for this molecule: CC(C)(C)c1ccc(COc2ccc(-c3ccc(OC(F)(F)F)cc3)cc2N(Cc2ccccc2)C(=O)C(=O)O)cc1
Result: 64

Q: State its inhibition at 5 µM: CC(C)(C)c1ccc(CN(C(=O)C(=O)O)c2ccc(Cl)cc2-c2ccc(OC(F)(F)F)cc2)cc1
Result: 80
